Where these numbers come from: PubChem BioAssay (NCI)

Tested on: TK-10 renal
experiment description: NCI tumour cell line growth inhibition, 48 h; in the data active means GI50 below about 0.43 µM; inactive means the rest
Possible outcomes: active, inactive

>>> df
                                   compound  class_assignment
0  CCc1ccc(C(=Nc2ccc(N(C)C(=O)CN3CCN(C)CC3)cc2)c2c(O)[nH]c3ccc(C(=O)OC)cc23)cc1            active
1  CCOC(=O)C1=C(C)N(Cc2ccc(Cl)cc2Cl)C2(O)C=CC(=O)C3=C(O)c4ccccc4C(=O)C312 (stereo not drawn)          inactive
2  O=C(NO)[C@@H](Cc1ccccc1)NS(=O)(=O)c1ccc(-c2ccccc2)cc1          inactive
3  O=C1/C(=C/c2ccc(Cl)cc2)CCC/C1=C\c1ccc(Cl)cc1          inactive
4  CCOC(=O)c1cc(-c2ccccc2)[nH]c1N/N=C/c1ccc(Cl)cc1          inactive
5  CC(CN(C)C)Oc1ccccc1NC1=C(Cl)C(=O)C(Nc2ccccc2OC(C)CN(C)C)=C(Cl)C1=O (stereo not drawn)          inactive
6  CCCN(CCC)c1ccc(/C=N/NC(=O)c2cccnc2)c(OC)c1          inactive
7  C/C(=C\c1cc(C(F)(F)F)n(-c2ccc(N)cc2)n1)[C@@H]1C[C@@H]2O[C@]2(C)CCC[C@H](C)[C@H](O)[C@@H](C)C(=O)C(C)(C)[C@@H](O)CC(=O)O1            active

###

System: MDA-MB-231 breast
experiment description: NCI tumour cell line growth inhibition, 48 h; in the data active = GI50 below about 0.43 µM; inactive = the rest
Possible outcomes: active, inactive

molecule	class assignment
CN(C)CCNc1c2ccccc2nc2oc3ccccc3c12	inactive
NS(=O)(=O)NCCNc1nonc1C(=Nc1ccc(F)c(Br)c1)NO	inactive
CC(=O)O[C@H](C[C@H](C(C)C)N(C)C(=O)[C@@H](NC(=O)[C@H]1CCCN1C)C(C)C)c1nc(C(=O)N[C@@H](Cc2ccccc2)C[C@H](C)C(=O)O)c(C)s1	active
CCC(=O)Nc1ccc(C)c(-c2ccc(C(=O)NCC3CC3)cc2)c1	inactive
C=C(CO)[C@@H]1CC[C@]2(COC3CCCCO3)CC[C@]3(C)[C@H](CC[C@@H]4[C@@]5(C)C=C(C=O)C(=O)C(C)(C)[C@@H]5CC[C@]43C)[C@@H]12 (stereo not given in full)	active

###

Tested on: OVCAR-8 ovarian
experiment description: NCI tumour cell line growth inhibition, 48 h
The following compounds are listed with their measured TGI values.
measurement kind: TGI

>>> print(df.to_string())
                                    compound      measured_on  value_measured
 0                  O=C(CCc1ccccc1)n1cccc1CO  OVCAR-8 ovarian        > 100 µM
 1  CCN(CC)C(=S)SC(C(=O)Nc1nnc(-c2ccccc2)o1)c1ccccc1 (configuration not stated)  OVCAR-8 ovarian        > 100 µM
 2  CC1=C(/C=C/C(C)=C/C=C/C(C)=C/C(=O)O)C(C)(C)CCC1  OVCAR-8 ovarian       > 77.9 µM
 3  Cc1cc2c(C(N)=O)c(N)n(-c3c(C)ccc(O)c3C)c2nc1C  OVCAR-8 ovarian           18 µM
 4                    Nc1n[n+](-c2ccccc2)no1  OVCAR-8 ovarian        > 100 µM
 5  Cc1cccc2c1CCC21OC(=O)c2c1ccc1ccccc21 (configuration not stated)  OVCAR-8 ovarian        > 100 µM
 6  Oc1c(Br)cc(/C=C/c2cccc(/C=C/c3cc(Br)c(O)c(Br)c3)n2)cc1Br  OVCAR-8 ovarian         41.7 µM
 7  COc1cc2c(cc1OC)C(=O)C1(C2)[C@H](c2ccccc2)C2C(=O)c3cc(OC)c(OC)cc3C2[C@H]1c1ccccc1 (some centres not stated)  OVCAR-8 ovarian        > 100 µM
 8  O=[N+]([O-])c1cc(C(F)(F)F)ccc1Sc1ccc(C(F)(F)F)cc1[N+](=O)[O-]  OVCAR-8 ovarian        > 100 µM
 9  COc1ccc2oc(C(=O)O)c3c2c1CCC3CCC(=O)O (configuration not stated)  OVCAR-8 ovarian        > 100 µM
10  CC(=O)n1cc(OP(=O)(Oc2ccccc2)Oc2ccccc2)c2ccccc21  OVCAR-8 ovarian        > 100 µM
11  COc1cc2nccc(Oc3ccc(NC(=O)Nc4cc(C)on4)c(Cl)c3)c2cc1OC  OVCAR-8 ovarian        > 100 µM
